// data source = patent US10906878B2

Overview of reported EGFR activity (% Control, 100 nM drug) L858R/T790M across a group of compounds:
- tested on: EGFR L858R/T790M Ba/F3 cells (Homo sapiens (Human), UniProt P00533, L858R/T790M)
- assay protocol: Ba/F3 cell growth inhibition (MTS assay), EGFR L858R/T790M
- Type: cell-based
- test parameters: 100 nM drug; Table F
Number only, in % Control; omit the unit.

>  <compound>
C=CC(=O)Nc1cccc(N(C(=O)Nc2ccc(F)c(Cl)c2)c2cc(Nc3ccc(N4CCN(C)CC4)cc3OC)ncn2)c1 [Compound 22A]

>  <numeric value>
4

$$$$

In: # query: EGFR activity (% Control, 100 nM drug) L858R/T790M of entry COc1ccc(NC(=O)/C=C/CN(C)C)cc1Nc1ncc2c(n1)N(C)C(=O)N(c1ccccc1)C2
Out: 102

In: # query: EGFR activity (% Control, 100 nM drug) L858R/T790M of entry COc1ccc(NC(=O)/C=C/CN(C)C)cc1Nc1cc(N(C)C(=O)Nc2ccccc2)ncn1 [Compound 20A]
Out: 26

In: # query: EGFR activity (% Control, 100 nM drug) L858R/T790M of entry C=CC(=O)Nc1cccc(Nc2cc(N(C)C(=O)Nc3ccc(F)c(Cl)c3)ncn2)c1 [Compound 19A]
Out: 101

In: # query: EGFR activity (% Control, 100 nM drug) L858R/T790M of entry CN(C)C/C=C/C(=O)Nc1cccc(Nc2cc(N(C)C(=O)Nc3ccccc3)ncn2)c1 [Compound 21A]
Out: 100

In: # query: EGFR activity (% Control, 100 nM drug) L858R/T790M of entry C=CC(=O)Nc1cccc(Oc2nc(Nc3ccc(N4CCN(C)CC4)cc3OC)ncc2Cl)c1 [WZ4002, reference compound]
Out: 3

In: # query: EGFR activity (% Control, 100 nM drug) L858R/T790M of entry C=CC(=O)Nc1cccc(N(C(=O)NCc2ccccc2)c2cc(NC)ncn2)c1 [Compound 15A]
Out: 48

In: # query: EGFR activity (% Control, 100 nM drug) L858R/T790M of entry C=CC(=O)Nc1cccc(Nc2cc(N(C)C(=O)NCc3ccccc3)ncn2)c1 [Compound 17A]
Out: 52

In: # query: EGFR activity (% Control, 100 nM drug) L858R/T790M of entry C=CC(=O)Nc1cccc(N(C(=O)Nc2ccccc2)c2cc(NC)ncn2)c1 [Compound 14A]
Out: 75

----------
- assay protocol: Microsome Stability Mouse
- Type: in vitro ADME
- test parameters: mouse microsomes
readout kind: Microsome Stability Mouse min (min)
Number only, in min; omit the unit.

Solved cases (4 shown):
>  <molecule>
C=CC(=O)Nc1cccc(N(C(=O)NCc2cccs2)c2cc(Nc3ccc(N4CCOCC4)cc3OC)ncn2)c1 [Compound 55A]

>  <Microsome Stability Mouse min [min]>
1.8

$$$$
>  <molecule>
C=CC(=O)Nc1cccc(N(C(=O)N[C@@H](C)c2ccccc2)c2cc(Nc3ccc(N4CCN(C)CC4)cc3OC)ncn2)c1 [Compound 34A]

>  <Microsome Stability Mouse min [min]>
9.4

$$$$
>  <molecule>
C=CC(=O)Nc1cccc(N(C(=O)Oc2ccccc2)c2ccnc(Nc3ccc(N4CCN(C)CC4)cc3OC)n2)c1 [Compound 10A]

>  <Microsome Stability Mouse min [min]>
18.5

$$$$
>  <molecule>
C=CC(=O)Nc1cccc(N(C(=O)OCc2ccccc2)c2ccnc(Nc3ccc(N4CCN(C)CC4)cc3OC)n2)c1 [Compound 4A]

>  <Microsome Stability Mouse min [min]>
29

$$$$

In: # query: Microsome Stability Mouse min of entry C=CC(=O)Nc1cccc(N(C(=O)Nc2ccccc2)c2cc(Nc3ccc(N4CCN(C)CC4)cc3OC)ncn2)c1 [Compound 1A]
Out: 14

----------
- tested on: EGFR Del Ba/F3 cells (Homo sapiens, UniProt P00533, cells depend on it, form not given)
- assay protocol: Ba/F3 cell growth inhibition (MTS assay), EGFR Del
- Format: cell-based
- test parameters: 100 nM drug; Table F
readout kind: EGFR activity (% Control, 100 nM drug) Del
Write your answer as a measured quantity: the number, then the unit.

Solved cases (4 shown):
>  <molecule>
COc1ccc(NC(=O)/C=C/CN(C)C)cc1Nc1cc(N(C)C(=O)Nc2ccccc2)ncn1 [Compound 20A]

>  <tested on>
EGFR Del Ba/F3 cells (Homo sapiens, UniProt P00533, cells depend on it, form not given)

>  <result>
2 % Control

$$$$
>  <molecule>
C=CC(=O)Nc1cccc(N(C(=O)Nc2ccccc2)c2cc(NC)ncn2)c1 [Compound 14A]

>  <tested on>
EGFR Del Ba/F3 cells (Homo sapiens, UniProt P00533, cells depend on it, form not given)

>  <result>
24 % Control

$$$$
>  <molecule>
C=CC(=O)Nc1cccc(N(C(=O)NCc2ccccc2)c2cc(NC)ncn2)c1 [Compound 15A]

>  <tested on>
EGFR Del Ba/F3 cells (Homo sapiens, UniProt P00533, cells depend on it, form not given)

>  <result>
47 % Control

$$$$
>  <molecule>
CN(C)C/C=C/C(=O)Nc1cccc(Nc2cc(N(C)C(=O)Nc3ccccc3)ncn2)c1 [Compound 21A]

>  <tested on>
EGFR Del Ba/F3 cells (Homo sapiens, UniProt P00533, cells depend on it, form not given)

>  <result>
10 % Control

$$$$

Now examine the next entry.
In: # query: EGFR activity (% Control, 100 nM drug) Del of entry C=CC(=O)Nc1cccc(N(C(=O)Nc2ccc(F)c(Cl)c2)c2cc(Nc3ccc(N4CCN(C)CC4)cc3OC)ncn2)c1 [Compound 22A]
Out: 3 % Control

----------
- tested on: EGFR Del/T790M Ba/F3 cells (Homo sapiens, UniProt P00533, T790M, cells depend on it, form not given)
- assay protocol: Ba/F3 cell growth inhibition (MTS assay), EGFR Del/T790M
- Format: cell-based
- test parameters: 100 nM drug; Table F
readout kind: EGFR activity (% Control, 100 nM drug) DEL/T790M (% Control)
Number only, in % Control; omit the unit.

Solved cases (2 shown):
>  <molecule>
C=CC(=O)Nc1cccc(Nc2cc(N(C)C(=O)NCc3ccccc3)ncn2)c1 [Compound 17A]

>  <numeric value>
85

$$$$
>  <molecule>
C=CC(=O)Nc1cccc(N(C(=O)Nc2ccccc2)c2cc(NC)ncn2)c1 [Compound 14A]

>  <numeric value>
98

$$$$

In: # query: EGFR activity (% Control, 100 nM drug) DEL/T790M of entry C=CC(=O)Nc1cccc(Nc2cc(N(C)C(=O)Nc3ccccc3)ncn2)c1 [Compound 13A]
Out: 90

In: # query: EGFR activity (% Control, 100 nM drug) DEL/T790M of entry C=CC(=O)Nc1cccc(N(C(=O)NCc2ccccc2)c2cc(NC)ncn2)c1 [Compound 15A]
Out: 107

In: # query: EGFR activity (% Control, 100 nM drug) DEL/T790M of entry COc1ccc(NC(=O)/C=C/CN(C)C)cc1Nc1cc(N(C)C(=O)Nc2ccccc2)ncn1 [Compound 20A]
Out: 126

----------
Overview of reported EGFR activity (% Control, 100 nM drug) L858R across a group of compounds:
- tested on: EGFR L858R Ba/F3 cells (Homo sapiens (Human), UniProt P00533, L858R)
- assay protocol: Ba/F3 cell growth inhibition (MTS assay), EGFR L858R
- Format: cell-based
- test parameters: 100 nM drug; Table F
Number only, in % Control; omit the unit.

>  <compound>
C=CC(=O)Nc1cccc(N(C(=O)NCc2ccccc2)c2cc(NC)ncn2)c1 [Compound 15A]

>  <numeric value>
3

$$$$
>  <compound>
C=CC(=O)Nc1cccc(N(C(=O)Nc2ccc(F)c(Cl)c2)c2cc(Nc3ccc(N4CCN(C)CC4)cc3OC)ncn2)c1 [Compound 22A]

>  <numeric value>
3

$$$$

In: # query: EGFR activity (% Control, 100 nM drug) L858R of entry C=CC(=O)Nc1cccc(Nc2cc(N(C)C(=O)Nc3ccccc3)ncn2)c1 [Compound 13A]
Out: 3
